Measured Inhibition of binding (%), listed per entry for reference.
target system: T1, human TSH receptor (full length), coated on tubes (human, UniProt P16473 22-764)
T1 construct: TSHR coated tubes as described in WO2004/050708A2; Exact preparation on the tubes is not detailed here; also called thyroid stimulating hormone receptor
experimental protocol: competition with 125I-K1-18 IgG on TSHR coated tubes; 0.001 µg/mL, diluted in HBD serum pool
Number only, in %; omit the unit.

K1-18 IgG (antibody, V domains shown) VH: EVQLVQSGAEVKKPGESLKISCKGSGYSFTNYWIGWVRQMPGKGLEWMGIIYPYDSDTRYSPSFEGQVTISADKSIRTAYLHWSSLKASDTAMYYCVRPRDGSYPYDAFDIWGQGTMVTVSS VL: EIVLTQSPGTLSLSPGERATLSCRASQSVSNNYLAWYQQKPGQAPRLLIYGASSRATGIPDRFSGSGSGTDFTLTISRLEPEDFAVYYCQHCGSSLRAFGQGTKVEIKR; 2.7

[ask] Please look up its Inhibition of binding (%): K1-70 IgG (antibody, V domains shown) VH: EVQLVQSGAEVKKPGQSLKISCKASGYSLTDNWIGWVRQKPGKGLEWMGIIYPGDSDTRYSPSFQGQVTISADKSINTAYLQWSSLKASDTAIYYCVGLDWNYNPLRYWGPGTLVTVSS VL: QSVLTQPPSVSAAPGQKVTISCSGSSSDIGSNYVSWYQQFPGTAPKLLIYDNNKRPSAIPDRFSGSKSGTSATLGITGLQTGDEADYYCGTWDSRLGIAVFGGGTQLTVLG
[reply] 0

[ask] Ok, now K1-70 Fab (Fab, V domains shown) VH: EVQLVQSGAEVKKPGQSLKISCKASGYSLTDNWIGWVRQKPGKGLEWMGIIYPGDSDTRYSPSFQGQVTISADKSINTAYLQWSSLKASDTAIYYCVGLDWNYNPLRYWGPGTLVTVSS VL: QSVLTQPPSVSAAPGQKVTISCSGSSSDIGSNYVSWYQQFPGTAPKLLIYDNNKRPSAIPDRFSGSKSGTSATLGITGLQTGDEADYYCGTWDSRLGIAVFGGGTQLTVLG
[reply] -3.2

[ask] Lookup K1-18 Fab (Fab, V domains shown) VH: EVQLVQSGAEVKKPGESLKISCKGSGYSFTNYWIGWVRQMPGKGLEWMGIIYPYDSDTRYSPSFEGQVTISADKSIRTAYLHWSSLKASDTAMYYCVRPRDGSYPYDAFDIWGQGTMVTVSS VL: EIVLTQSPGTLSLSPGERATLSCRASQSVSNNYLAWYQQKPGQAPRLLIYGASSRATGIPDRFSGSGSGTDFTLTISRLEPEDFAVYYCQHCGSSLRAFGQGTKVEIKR
[reply] -1

Cited source: patent US20110300138A1
